# assay.details: Plasma concentration in cynomolgus monkey at 0.4 mg/kg, po after 2 hrs
# Type: ADME, organism-based, Macaca fascicularis
# Design: dose 0.4 mg/kg, route oral

{"columns": ["structure.notation", "unit.of.measure", "concentration at 2 h"],
 "data": [
  ["C[C@@H]1CN(CC2(C(N)=O)CC2)CCN1S(=O)(=O)c1ccc([C@](C)(O)C(F)(F)F)cc1", "µM", 0.029]
]}

----------
# assay.details: Clearance in rat
# Assay type: ADME, organism-based
# particulars: in vivo
outcome.measure: clearance (mL/min/kg)

{"columns": ["compound", "unit.of.measure", "numeric.readout"],
 "data": [
  ["C[C@@H]1CN(CC2(c3ccncc3)CC2)CCN1S(=O)(=O)c1ccc(C(C)(O)C(F)(F)F)cc1 (stereo partly specified)", "mL/min/kg", 35]
]}
